- Assay System: human MC4R (Homo sapiens, UniProt P32245)
- Construct: host or cells: HEK-293 cells stably expressing the GScAMP22F split-luciferase cAMP sensor and hMC4R, G418 selection
- Sequence (P32245 whole entry): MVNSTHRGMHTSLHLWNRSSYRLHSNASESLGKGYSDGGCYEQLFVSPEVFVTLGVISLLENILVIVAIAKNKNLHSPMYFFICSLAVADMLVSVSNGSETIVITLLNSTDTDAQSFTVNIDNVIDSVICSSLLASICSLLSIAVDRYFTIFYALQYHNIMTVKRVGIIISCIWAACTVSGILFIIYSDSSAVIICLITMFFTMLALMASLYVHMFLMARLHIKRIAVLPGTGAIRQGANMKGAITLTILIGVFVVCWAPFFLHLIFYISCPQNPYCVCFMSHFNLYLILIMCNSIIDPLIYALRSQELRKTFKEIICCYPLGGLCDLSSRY
- Test Name: split-luciferase cAMP sensor assay, agonist mode (measurement window 1), hMC4R
- Assay type: cell-based
- Stated Conditions: agonist mode, hMC4R stable cell line; read-out: MC4R cAMP % max activation
Positions of bridges follow the written chain, without caps; N, C: chain ends. Non-standard residues stand in square brackets, D forms with d. Residues, ends and D or L forms follow the SMILES beside them. Phe(4-Br) = N[C@@H](Cc1ccc(Br)cc1)C(=O)O; dPhe(4-Br) = N[C@H](Cc1ccc(Br)cc1)C(=O)O; dPhe(4-I) = N[C@H](Cc1ccc(I)cc1)C(=O)O; Nle = CCCC[C@H](N)C(=O)O
Attribute Measured: Emax (%)
Output spec: scalar in %, unitless text.

Data request: // Emax lookup, key: CC(=O)N[C@@H](CCCNC(=N)N)C(=O)N[C@H]1CSSC[C@@H](C(N)=O)NC(=O)[C@@H](Cc2c[nH]c3ccccc23)NC(=O)[C@H](CCCNC(=N)N)NC(=O)[C@H](Cc2ccc(Br)cc2)NC(=O)[C@H](CCCNC(=N)N)NC(=O)[C@@H](C)NC1=O [CTX-1215] (Ac-RC[dA]R[Phe(4-Br)]R[dW]C-NH2; disulfide 2-8 (inferred))
Data returned: 56

Data request: Item under review: CC(=O)N[C@@H](CCCNC(=N)N)C(=O)N[C@H]1CSSC[C@@H](C(N)=O)NC(=O)[C@@H](Cc2c[nH]c3ccccc23)NC(=O)[C@H](CCCNC(=N)N)NC(=O)[C@@H](Cc2ccc(Br)cc2)NC(=O)[C@H](CCCNC(=N)N)NC(=O)[C@@H](C)NC1=O [CTX-1214] (Ac-RC[dA]R[dPhe(4-Br)]R[dW]C-NH2; disulfide 2-8 (inferred)) . Reported Emax?
Data returned: 74

Data request: Form field: reported Emax of CCCC[C@H](NC(C)=O)C(=O)N[C@H]1CSSC[C@@H](C(N)=O)NC(=O)[C@@H](Cc2c[nH]c3ccccc23)NC(=O)[C@H](CCCNC(=N)N)NC(=O)[C@@H](Cc2ccc(I)cc2)NC(=O)[C@H](Cc2c[nH]cn2)NC1=O [CTX-1234] (Ac-[Nle]CH[dPhe(4-I)]R[dW]C-NH2; disulfide 2-7 (inferred))
Data returned: 16

This collection of values is drawn from patent US20240391954A1.
